Tested on: HAL-01;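 further: ALL cell lines in 384-well plates, five doses spanning 10,000-fold, each plate scaled between vehicle and 100 µmol/L benzalkonium chloride controls, sDSS an adapted area-under-curve metric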
Assay: selective drug sensitivity score (sDSS, relative to normal bone marrow) (sDSS (score)); higher = more potent and effective on the cell line relative to normal bone marrow cells
Settings: 72 h
Please mark fulfilled if the recorded selective drug sensitivity score is equal to or greater than 0.6, and not fulfilled if it falls below.

Decide: selective drug sensitivity score of CC1=C2C[C@H]3[C@@H](CC[C@@H]4C[C@H](NS(C)(=O)=O)CC[C@@]43C)[C@@H]2CC[C@@]2(C1)O[C@@H]1C[C@H](C)CN[C@H]1[C@H]2C [Saridegib] (top concentration 10000 nM) >= 0.6?
fulfilled

Does the reported selective drug sensitivity score for CC[C@@H](C(=O)[C@@H](C)[C@@H](O)[C@H](C)[C@@H]1O[C@@H]([C@@H](CC)C(=O)O)CC[C@@H]1C)[C@H]1O[C@]2(C=C[C@@H](O)[C@]3(CC[C@@](C)([C@H]4CC[C@](O)(CC)[C@H](C)O4)O3)O2)[C@H](C)C[C@@H]1C [Salinomycin] (top concentration 50000 nM) fall at or above the 0.6 mark?
fulfilled

Identify whether the reported selective drug sensitivity score of the following compound is 0.6 or greater: C[C@]1(c2nc3c(C(N)=O)cccc3[nH]2)CCCN1 [Veliparib] (top concentration 10000 nM)
fulfilled

Could you please find out whether CCN(CC)CCCC(C)Nc1ccnc2cc(Cl)ccc12 (stereo not drawn) [Chloroquine] (top concentration 100000 nM) has selective drug sensitivity score that meets 0.6 or exceeds it?
not fulfilled

Quick check: does O=C(CCCCCCC(=O)Nc1ccc([C@H]2O[C@@H](CSc3nc(-c4ccccc4)c(-c4ccccc4)o3)C[C@@H](c3ccc(CO)cc3)O2)cc1)NO [Tubacin] (top concentration 10000 nM) have selective drug sensitivity score greater than or equal to 0.6?
fulfilled

Please tell me: is the compound CC1(COc2ccc3c(c2)ncn3-c2ccc3cccc(N4CCC(N)CC4)c3n2)COC1 [Crenolanib] (top concentration 10000 nM) at or over 0.6 in terms of selective drug sensitivity score?
not fulfilled

hey, is selective drug sensitivity score for this one >= 0.6? CC1(C)CNc2cc(NC(=O)c3cccnc3NCc3ccncc3)ccc21 [Motesanib] (top concentration 10000 nM)
not fulfilled

Check this compound for selective drug sensitivity score at or above 0.6: Cn1nccc1Nc1nccc(-c2ccn([C@H](CO)c3ccc(Cl)c(F)c3)c(=O)c2)n1 [Ravoxertinib] (top concentration 10000 nM)
fulfilled

Answer whether selective drug sensitivity score of COc1cccc2c1C(=O)c1c(O)c3c(c(O)c1C2=O)C[C@@](O)(C(C)=O)C[C@@H]3O[C@H]1C[C@H](N)[C@H](O)[C@H](C)O1 [Daunorubicin] (top concentration 1000 nM) is greater than or equal to 0.6.
not fulfilled

Decide: is the reported value of selective drug sensitivity score for CC[C@H](C)C(=O)O[C@H]1C[C@H](O)C=C2C=C[C@H](C)[C@H](CC[C@@H](O)C[C@@H](O)CC(=O)O)[C@H]21 [Pravastatin] (top concentration 10000 nM) equal to or greater than 0.6?
fulfilled

API: above_or_equal(metric=selective drug sensitivity score, cutoff=0.6) for item C=C(c1ccc(C(=O)O)cc1)c1cc2c(cc1C)C(C)(C)CCC2(C)C [Bexarotene] (top concentration 10000 nM)
not fulfilled

Entry CNC(=O)c1ccc(-c2cnc3ncc(Cc4ccc5ncccc5c4)n3n2)cc1F [Capmatinib] (top concentration 1000 nM) : is its selective drug sensitivity score no less than 0.6?
fulfilled

Determine whether measured selective drug sensitivity score meets or exceeds 0.6 for N#Cc1ccc(COC[C@H]2O[C@@H](n3c(NCc4ccc(Cl)c(Cl)c4)nc4c(N)ncnc43)[C@H](O)[C@@H]2O)cc1 (top concentration 10000 nM)
not fulfilled

Is reported selective drug sensitivity score greater than or equal to 0.6 here: Cc1cc2c(C(=O)NC[C@H](C)c3ccccc3)c(O)c(O)cc2c(O)c1-c1c(C)cc2c(C(=O)NC[C@H](C)c3ccccc3)c(O)c(O)cc2c1O [Sabutoclax] (top concentration 25000 nM)
not fulfilled

Dear colleague, could you confirm whether CCN(CC)Cc1ccc2cc(COC(=O)Nc3ccc(C(=O)NO)cc3)ccc2c1 [Givinostat] (top concentration 1000 nM) has selective drug sensitivity score at or above 0.6?
not fulfilled

Check this compound for selective drug sensitivity score at or above 0.6: Nc1nc(N)c2nc(-c3cccc(O)c3)c(-c3cccc(O)c3)nc2n1 [TG100-115] (top concentration 10000 nM)
fulfilled

Kindly determine if selective drug sensitivity score recorded for N#CC(c1ccnc(OCc2ccc(CN3CCOCC3)cc2)n1)c1nc2ccccc2s1 (stereo not drawn) [Bentamapimod] (top concentration 10000 nM) is above or exactly 0.6.
fulfilled

Is it the case that CCn1cc(-c2ccnc3[nH]c(-c4cccc(CN(C)C)c4)cc23)c(-c2ccc(NC(=O)N(C)C)cc2)n1 (top concentration 1000 nM) has selective drug sensitivity score reaching or exceeding 0.6?
fulfilled

Would you say CCCN(CCC)C(=O)C1=Cc2ccc(-c3ccc(C(=O)N4CCCC4)cc3)cc2N=C(N)C1 [Motolimod] (top concentration 10000 nM) shows selective drug sensitivity score at minimum 0.6?
not fulfilled

Does the reported selective drug sensitivity score for COc1cc(Br)c(Nc2nc(-c3c(C)nc4ncccn34)cs2)c(Br)c1 [PTC-209] (top concentration 10000 nM) fall at or above the 0.6 mark?
not fulfilled

Has Cc1cc(-c2ncc(CC(=O)Nc3ccc(-c4cnccn4)cn3)cc2C)ccn1 [NVP-LGK974] (top concentration 10000 nM) a recorded selective drug sensitivity score greater than or equal to 0.6?
not fulfilled

hey, is selective drug sensitivity score for this one >= 0.6? Cc1ccc(F)c(NC(=O)Nc2ccc(-c3cccc4[nH]nc(N)c34)cc2)c1 [Linifanib] (top concentration 1000 nM)
not fulfilled

hey, is selective drug sensitivity score for this one >= 0.6? C[C@@H](Oc1cc(-c2cnn(C3CCNCC3)c2)cnc1N)c1c(Cl)ccc(F)c1Cl [Crizotinib] (top concentration 1000 nM)
not fulfilled
